# test protocol: inhibition of 3D7 malaria parasite growth – strain 3D7 (AID 2306);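 further: 0% = DMSO wells and 100% = chloroquine plus artemisinin control wells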
# experimental parameters: P. falciparum 3D7 erythrocytic growth, LDH absorbance, 72 h; at 2 µM; active compounds read high
Calls of active or inactive are those of the source. How the calls were made is not given here.
quantity kind: growth inhibition

These solved cases illustrate the format of a correct answer.
O=C(NCc1ccccc1)O[C@@H]1CNCC[C@H]1c1ccc(C(O)Cc2ccccc2)cc1 (stereo partly specified)    87% (active)
O=C(Nc1ccccc1)c1cnc[nH]1    92% (active)
Cc1cccc(N2CCN(C3CCC(NC(=O)c4cc5ccccc5[nH]4)CC3)CC2)c1C (stereo unspecified)    101% (active)
CCCc1cc(Cc2cnc(N)nc2N)cc(OCCCCCC(=O)O)c1OC    95% (active)
O=C(NC1CCN(Cc2ccccc2)CC1)c1csc2nc(-c3ccc(Cl)cc3)cn12    98% (active)

*Q* Provide one value: measured growth inhibition of CC(C)CNCc1cccc(-c2cccc(CN(CCN(C)C)C(=O)Nc3ccccc3)c2)c1
*A* 99% (active)

*Q* Provide one value: measured growth inhibition of COc1ccc2nccc([C@@H](O)CN3CCC(NCC(=O)Nc4cc(F)cc(F)c4)CC3)c2n1
*A* 89% (active)

*Q* Provide one value: measured growth inhibition of C[C@H](NC(=O)c1cc(-c2ccc(C(C)(C)C)cc2)no1)C(=O)O (tested in a mixture with another compound)
*A* 91% (active)

*Q* Provide one value: measured growth inhibition of CCCCCCCN1CC[C@@H](CCCc2ccnc3ccc(OC)cc23)[C@@H](CCN)C1
*A* 102% (active)

*Q* Provide one value: measured growth inhibition of O=C(NC1CCC(N2CCC(O)(c3ccc(F)cc3)CC2)CC1)c1cc2ccccc2[nH]1 (stereo unspecified)
*A* 94% (active)

*Q* Provide one value: measured growth inhibition of O=C(C1CC1)N1c2ccccc2CCc2ccccc21
*A* 98% (active)

*Q* Provide one value: measured growth inhibition of OC(CNCc1ccccc1)c1cc(OCc2ccccc2)cc(OCc2ccccc2)c1 (stereo unspecified)
*A* 98% (active)

*Q* Provide one value: measured growth inhibition of NCc1cccc(-c2ccc3ccnc(N)c3c2)c1
*A* 101% (active)

* * *

As shown below, each of these compounds has a reported inhibition value.
# subject of test: L-lactate dehydrogenase (Plasmodium falciparum (isolate CDC / Honduras)) (UniProt Q27743)
# Sequence (Q27743 whole entry, looked up): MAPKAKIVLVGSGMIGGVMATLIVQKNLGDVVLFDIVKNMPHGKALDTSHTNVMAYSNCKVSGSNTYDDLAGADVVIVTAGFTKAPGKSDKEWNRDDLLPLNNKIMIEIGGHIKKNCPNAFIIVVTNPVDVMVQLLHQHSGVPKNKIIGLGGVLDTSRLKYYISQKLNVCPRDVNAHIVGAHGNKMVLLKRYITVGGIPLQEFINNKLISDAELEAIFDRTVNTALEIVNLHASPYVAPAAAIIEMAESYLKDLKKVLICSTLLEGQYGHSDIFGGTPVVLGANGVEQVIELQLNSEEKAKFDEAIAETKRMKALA
# test protocol: PfLDH activity inhibition – cell lysate, 3D7 strain, counter-screen for P. falciparum growth inhibition project (AID 2304);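 further: 0% = vehicle and 100% = reference inhibitor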
# experimental parameters: P. falciparum 3D7 crude extract, LDH APAD/NBT absorbance; at 2 µM; active compounds read high
Give just the number in %; leave the unit off.

These solved cases illustrate the format of a correct answer.
CCc1cn2c3c(cc(C(=O)N[C@@H](Cc4ccccc4)[C@H](O)CNCCOC)cc13)N(C)S(=O)(=O)CC2    -9
CCc1ccc(-n2c(NC(=O)c3ccccc3)nc3ccc(S(=O)(=O)NC(C)C(C)C)cc32)cc1 (stereo unspecified)    0
Cc1cc(C(F)(F)F)cc(-n2ncc(-c3ccc(C(=O)NCc4ccccc4N)cc3)c2N)n1    3
c1ccc2[nH]c(-c3ccc(-c4ccc(CNCC5CCCO5)cc4)s3)nc2c1 (stereo unspecified)    4
CN1CC[C@@H](Oc2cc(Nc3nc(-c4ccc(C#N)cc4)cs3)ccc2Cl)C1    -1
COc1ccc2ncc(C#N)c(CCN3CCC(NCc4cnc5c(c4)OCCO5)CC3)c2n1    -3

*Q* GET inhibition where system = L-lactate dehydrogenase (Plasmodium falciparum (isolate CDC / Honduras)) (UniProt Q27743) and item = C[C@@H]1CN(c2cnn(Cc3cccc(NC(=O)Nc4ccc(-c5ccccc5)cc4)c3)c(=O)c2Cl)C[C@H](C)N1
*A* 1

*Q* GET inhibition where system = L-lactate dehydrogenase (Plasmodium falciparum (isolate CDC / Honduras)) (UniProt Q27743) and item = O=C(Nc1ccc(-c2nc3ccccc3[nH]2)cc1)c1ccc(Cl)s1
*A* 4

*Q* GET inhibition where system = L-lactate dehydrogenase (Plasmodium falciparum (isolate CDC / Honduras)) (UniProt Q27743) and item = Cc1[nH]c(C)c(-c2ccc(OCc3ccc(OC(F)(F)F)cc3)nc2)c(=O)c1Br
*A* 7

*Q* GET inhibition where system = L-lactate dehydrogenase (Plasmodium falciparum (isolate CDC / Honduras)) (UniProt Q27743) and item = COCCCNc1sc(S(=O)(=O)c2ccccc2)nc1S(=O)(=O)c1ccc(C)cc1
*A* -1

*Q* GET inhibition where system = L-lactate dehydrogenase (Plasmodium falciparum (isolate CDC / Honduras)) (UniProt Q27743) and item = CCN(CC)c1ccccc1CNC(=O)c1cc(Cl)c(N)cc1OC
*A* -1

*Q* GET inhibition where system = L-lactate dehydrogenase (Plasmodium falciparum (isolate CDC / Honduras)) (UniProt Q27743) and item = CC(CN(C)C)C(=O)Nc1ccc(-c2csc(-c3nc4ccccc4[nH]3)c2)cc1 (stereo unspecified)
*A* -4

*Q* GET inhibition where system = L-lactate dehydrogenase (Plasmodium falciparum (isolate CDC / Honduras)) (UniProt Q27743) and item = Cc1[nH]c(C)c(-c2ccc(C(=O)c3ccccc3)cc2)c(=O)c1Br
*A* 1

*Q* GET inhibition where system = L-lactate dehydrogenase (Plasmodium falciparum (isolate CDC / Honduras)) (UniProt Q27743) and item = CCCCOC(=O)C1=C(C)NC2=C(C(=O)CC(c3ccc(OC)c(OC)c3)C2)C1c1ccc(O)cc1 (stereo unspecified)
*A* 2

*Q* GET inhibition where system = L-lactate dehydrogenase (Plasmodium falciparum (isolate CDC / Honduras)) (UniProt Q27743) and item = CN(CCN(C)C(=O)NCc1ccccc1)C(=O)NCc1ccccc1
*A* 1

*Q* GET inhibition where system = L-lactate dehydrogenase (Plasmodium falciparum (isolate CDC / Honduras)) (UniProt Q27743) and item = O=C(Nc1ccc(F)c(Cl)c1)c1cc([N+](=O)[O-])cc2cn[nH]c12
*A* -4

*Q* GET inhibition where system = L-lactate dehydrogenase (Plasmodium falciparum (isolate CDC / Honduras)) (UniProt Q27743) and item = O=S(=O)(NC1CCN(c2ccnc3ccccc23)C1)c1ccc(OC(F)(F)F)cc1 (stereo unspecified)
*A* 5

*Q* GET inhibition where system = L-lactate dehydrogenase (Plasmodium falciparum (isolate CDC / Honduras)) (UniProt Q27743) and item = FC(F)(F)COc1ccc2ccccc2c1CNCCCCCCNCc1c(OCC(F)(F)F)ccc2ccccc12
*A* 2

*Q* GET inhibition where system = L-lactate dehydrogenase (Plasmodium falciparum (isolate CDC / Honduras)) (UniProt Q27743) and item = CC(C)(C)Nc1cc(C(=O)N[C@@H](Cc2ccccc2)[C@H](O)CNC2CCOCC2)cc(N2CCCCS2(=O)=O)c1
*A* -1

*Q* GET inhibition where system = L-lactate dehydrogenase (Plasmodium falciparum (isolate CDC / Honduras)) (UniProt Q27743) and item = COc1cc(Cc2cnc(N)nc2N)ccc1OCC(=O)Nc1ccc(C)cc1
*A* -2

*Q* GET inhibition where system = L-lactate dehydrogenase (Plasmodium falciparum (isolate CDC / Honduras)) (UniProt Q27743) and item = O=C(/C=C/c1cccc(Br)c1)NCCCCCN1CCC(c2c[nH]c3ccccc23)CC1
*A* 0

*Q* GET inhibition where system = L-lactate dehydrogenase (Plasmodium falciparum (isolate CDC / Honduras)) (UniProt Q27743) and item = Cc1ccc2c(Cl)c(C(=O)N3CCCc4ccccc43)sc2c1
*A* 0

*Q* GET inhibition where system = L-lactate dehydrogenase (Plasmodium falciparum (isolate CDC / Honduras)) (UniProt Q27743) and item = O=C(O)c1ccc(OCOCOc2ccc(C(=O)O)c(O)c2)cc1O
*A* 6

*Q* GET inhibition where system = L-lactate dehydrogenase (Plasmodium falciparum (isolate CDC / Honduras)) (UniProt Q27743) and item = O=C(N[C@@H](Cc1ccccc1)[C@H](O)CNC1CCCc2ccccc21)c1cc(C2CCCC2)cc(N2CCCC2=O)c1 (stereo partly specified)
*A* -7

*Q* GET inhibition where system = L-lactate dehydrogenase (Plasmodium falciparum (isolate CDC / Honduras)) (UniProt Q27743) and item = Cc1cc2nc(NC3=NC4(c5ccccn5)N=C(Nc5nc6cc(C)c(C)cc6[nH]5)NC4(c4ccccn4)N3)[nH]c2cc1C (stereo unspecified)
*A* -2

*Q* GET inhibition where system = L-lactate dehydrogenase (Plasmodium falciparum (isolate CDC / Honduras)) (UniProt Q27743) and item = COc1ccc(OC)c(Cc2cnc3nc(N)[nH]c(=O)c3c2C)c1
*A* 3
